system: hypoxia-inducible endogenous VEGF expression in HeLa cells; assay: Hypoxia-inducible endogenous VEGF expression, VEGF ELISA of conditioned media (dose-response EC50); format: cell-based; conditions: HeLa cells, hypoxic conditions (1% O2, 5% CO2)
pEC50: −log10 of the molar value.
measured-metric: pEC50

// query Report pEC50 for O=C(Oc1ccc(F)cc1)N1CCc2c([nH]c3ccc(Cl)cc23)C1c1ccc(OCCCn2ccnc2)cc1 (stereo not shown) please.
// result > 8.10

---

Can you tell me EC50 for the items I'm about to list?
system: hypoxia-inducible endogenous VEGF expression in HeLa cells; assay: Hypoxia-inducible endogenous VEGF expression, VEGF ELISA of conditioned media (dose-response EC50); type: cell-based; details: Homo sapiens, HeLa cells, hypoxic conditions (1% O2)

// query EC50 for CC(CC1NCCc2c1[nH]c1ccc(Cl)cc21)c1ccccc1 (stereo not drawn) [Compound 532] ?
// result 0.2 to 1 µM

// query For the molecule COCCOCCOc1ccc(C2c3[nH]c4ccc(Cl)cc4c3CCN2C(=O)Oc2ccc([N+](=O)[O-])cc2)cc1 (stereo not drawn) [Compound 681] , what EC50 is on record?
// result 0.008 to 0.04 µM

// query Which value of EC50 has been reported for O=C(Oc1ccccc1Cl)N1CCc2c([nH]c3ccc(Cl)cc23)C1c1ccc(Cl)cc1 (stereo not drawn) [Compound 589] in the records?
// result 0.04 to 0.2 µM

// query EC50 lookup needed for CCOC(=O)N1CCc2c([nH]c3ccc(Cl)cc23)C1c1ccc(C(=O)NCCC2CCCN2C)cc1 (stereo not drawn) [Compound 521] , thanks.
// result 0.2 to 1 µM

// query Name the reported EC50 value associated with the molecule O=C(Oc1ccc(Cl)cc1)N1CCc2c([nH]c3ccc(Cl)cc23)C1c1ccc(OCCCN2CCCCC2)cc1 (stereo not drawn) [Compound 433]
// result < 0.008 µM

// query Which EC50 reading was recorded for the molecule O=C(Oc1ccc(Cl)cc1)N1CCc2c([nH]c3ccc(Cl)cc23)C1c1ccc(OCCCCCCNCCCn2ccnc2)cc1 (stereo not drawn) [Compound 789] ?
// result 0.04 to 0.2 µM

// query So what's the measured EC50 for this one? CCOC(=O)Nc1ccc(C2c3[nH]c4ccc(Cl)cc4c3CCN2C(=O)Oc2ccc(Cl)cc2)cc1 (stereo not drawn) [Compound 467]
// result 0.008 to 0.04 µM

// query Fill in the blank: the reported EC50 of O=C(Oc1ccc(Cl)cc1)N1CCc2c([nH]c3ccc(Cl)cc23)C1c1ccc(OCCCn2ccnn2)cc1 (stereo not drawn) [Compound 417] is ____.
// result < 0.008 µM

// query Need EC50, item CCOC(=O)N1CCc2c([nH]c3ccc(Cl)cc23)C1c1ccc(OCCCN2CCCC2)cc1 (stereo not drawn) [Compound 449]
// result 0.008 to 0.04 µM

// query Look up EC50: CCOC(=O)N1CCc2c([nH]c3ccc(Br)cc23)C1c1ccc(C(=O)NCCN2CCOCC2)cc1 (stereo not drawn) [Compound 488]
// result 0.04 to 0.2 µM

// query Value lookup for EC50; key = O=C(Oc1ccc([N+](=O)[O-])cc1)N1CCc2c([nH]c3ccc(Cl)cc23)C1c1ccc(OCC(O)CO)cc1 (stereo not drawn) [Compound 632]
// result 0.008 to 0.04 µM

// query Query: EC50; subject: COCCOc1ccc(C2c3[nH]c4ccc(Cl)cc4c3CCN2C(=O)Oc2ccccc2)cc1 (stereo not drawn) [Compound 436]
// result < 0.008 µM

// query Using the record for O=C(Oc1ccccc1Cl)N1CCc2c([nH]c3ccc(Cl)cc23)C1c1ccc(OCC(O)CO)cc1 (stereo not drawn) [Compound 628] , report its EC50.
// result 0.04 to 0.2 µM

// query Would you kindly share the measured EC50 for CCOC(=O)N1CCc2c([nH]c3ccc(Br)cc23)C1c1ccc(CN2CCCN(C)CC2)cc1 (stereo not drawn) [Compound 541] ?
// result 0.2 to 1 µM

// query Please look up its EC50: CCCCCCC1c2[nH]c3ccc(Cl)cc3c2CCN1C(=O)OCC (stereo not drawn) [Compound 515]
// result 0.2 to 1 µM

---

system: hypoxia-inducible endogenous VEGF expression in HeLa cells; test: Hypoxia-inducible endogenous VEGF expression, VEGF ELISA of conditioned media (dose-response EC50); assay type: cell-based; settings: Homo sapiens, HeLa cells, hypoxic conditions (1% O2)
pEC50: −log10 of the molar value.
measured-metric: pEC50

// query State the recorded pEC50 for this entry: COc1ccc(OC(=O)N2CCc3c([nH]c4ccc(Cl)cc34)C2c2ccc(OCC(O)CO)cc2)cc1 (stereo not shown)
// result 7.40 to 8.10

// query Report pEC50 for O=C(Oc1ccc(Cl)cc1)N1CCc2c([nH]c3ccc(Cl)cc23)C1c1ccc(OCCCI)cc1 (stereo not shown) please.
// result 7.40 to 8.10

// query Fill in the blank: the reported pEC50 of COCCOCCOc1ccc(C2c3[nH]c4ccc(Cl)cc4c3CCN2C(=O)Oc2ccc(C)cc2)cc1 (stereo not shown) is ____.
// result 7.40 to 8.10

// query Report pEC50 for CN(C)CC(=O)Nc1ccc(C2c3[nH]c4ccc(Cl)cc4c3CCN2C(=O)Oc2ccc(Cl)cc2)cc1 (stereo not shown) please.
// result 6.70 to 7.40

// query Which pEC50 value belongs to CCOC(=O)N1CCc2c([nH]c3ccc(Cl)cc23)C1c1ccc(C(=O)N2CCC(NC(C)=O)C2)cc1 (stereo not shown) ?
// result < 6.00

// query Need pEC50, item CCOC(=O)N1CCc2c([nH]c3ccc(Cl)cc23)C1C(C)Cc1ccc(C(C)C)cc1 (stereo not shown)
// result 6.00 to 6.70

// query Request the reported pEC50 associated with CCOC(=O)N1CCc2c([nH]c3ccc(Cl)cc23)C1c1ccc(C(=O)NCCCN2CCOCC2)cc1 (stereo not shown)
// result 6.00 to 6.70

---

Exercise: for every item that follows, state its recorded EC50.
system: hypoxia-inducible endogenous VEGF expression in HeLa cells; assay: Hypoxia-inducible endogenous VEGF expression, VEGF ELISA of conditioned media (dose-response EC50); type: cell-based; settings: Homo sapiens, HeLa cells, hypoxic conditions (1% O2)

// query Given COCCOCCOc1ccc(C2c3[nH]c4ccc(Cl)cc4c3CCN2C(=O)Oc2ccccc2Cl)cc1 (stereo not shown) , state its recorded EC50.
// result 8 to 40 nM

// query Please look up its EC50: COC(=O)c1ccc(C2c3[nH]c4ccc(Br)cc4c3CCN2C(=O)Oc2ccccc2Cl)cc1 (stereo not shown)
// result 8 to 40 nM

// query What does the record list as EC50 for CCOC(=O)N1CCc2c([nH]c3ccc(Cl)cc23)C1c1ccc(C(=O)N2CCN(C3CCCCC3)CC2)cc1 (stereo not shown) ?
// result 40 to 200 nM

// query So what's the measured EC50 for this one? O=C(O)c1ccc(C2c3[nH]c4ccc(Br)cc4c3CCN2C(=O)Oc2ccc(Cl)cc2)cc1 (stereo not shown)
// result 200 to 1000 nM

---

tested on: hypoxia-inducible endogenous VEGF expression in HeLa cells; assay: Hypoxia-inducible endogenous VEGF expression, VEGF ELISA of conditioned media (dose-response EC50); type: cell-based; settings: Homo sapiens, HeLa cells, hypoxic conditions (1% O2)
measured-metric: EC50

// query Query the reported EC50 for hypoxia-inducible endogenous VEGF expression in HeLa cells; item: Nc1ncc(C2c3[nH]c4ccc(Cl)cc4c3CCN2C(=O)Oc2ccc(Cl)cc2)cn1 (stereo not shown)
// result 8 to 40 nM

// query EC50 of CC(C)(C)OC(=O)N1CCCC1C(=O)Oc1ccc(C2c3[nH]c4ccc(Cl)cc4c3CCN2C(=O)OC(C)(C)C)cc1 (stereo not shown) on hypoxia-inducible endogenous VEGF expression in HeLa cells?
// result < 8 nM

// query Provide the documented EC50 with hypoxia-inducible endogenous VEGF expression in HeLa cells as the system for CCOC(=O)N1CCc2c([nH]c3ccc(Cl)cc23)C1c1ccc(C(=O)NCC2CCCO2)cc1 (stereo not shown)
// result 40 to 200 nM

// query API: value(readout= EC50, system= hypoxia-inducible endogenous VEGF expression in HeLa cells, query= CCOC(=O)N1CCc2c([nH]c3ccc(Cl)cc23)C1c1ccc(C(=O)N2CCC(N3CCCCC3)CC2)cc1 (stereo not shown) )
// result 200 to 1000 nM

// query # query: EC50 | item CCOC(=O)N1CCc2c([nH]c3ccc(Cl)cc23)C1c1ccc(C(=O)NCCCn2ccnc2)cc1 (stereo not shown) | system: hypoxia-inducible endogenous VEGF expression in HeLa cells
// result 200 to 1000 nM

// query For hypoxia-inducible endogenous VEGF expression in HeLa cells, provide EC50 of CCOC(=O)N1CCc2c([nH]c3ccc(Cl)cc23)C1c1cccc(C(=O)N2CCN(C)CC2)c1 (stereo not shown) please.
// result 200 to 1000 nM

// query Notebook entry, hypoxia-inducible endogenous VEGF expression in HeLa cells assay: EC50 of CN1CCN(CCCCOc2ccc(C3c4[nH]c5ccc(Cl)cc5c4CCN3C(=O)Oc3ccc(Cl)cc3)cc2)CC1 (stereo not shown) = ?
// result 40 to 200 nM
